Reference source: patent US11072584B2

test system: MDCK cells; assay: crystal violet cell adhesion (CVCA) cell toxicity assay; conditions: Canis lupus familiaris, MDCK, read-out: EC50 (μM), Active Compound
Counter-ions that a name gives are not always drawn.
result_type: EC50

If you can, please state the reported EC50 value of COC(=O)[C@@H](N)CCCN1C(=O)C2C3(C)C(=O)C(C)(C(c4ccccc4)=C3c3ccccc3)C2(Br)C1=O (some centres unmarked) [oCOm-40, Trifluoroacetic Acid Salt] . > 100 µM

If you can, please state the reported EC50 value of CC12C(=O)C(C)(C(c3ccccc3)=C1c1ccccc1)C1(Br)C(=O)N(CCNCCN)C(=O)C21 (centres unmarked) [oCOm-23, bis-trifluoroacetate Salt] . 10.1 µM

If you can, please state the reported EC50 value of CN(C)C(=O)[C@@H](N)CCCCN1C(=O)C2C3(C)C(=O)C(C)(C(c4ccccc4)=C3c3ccccc3)C2(Br)C1=O (some centres unmarked) [oCOM-36, Trifluoroacetic Acid Salt] . > 100 µM

If you can, please state the reported EC50 value of CC12C(=O)C(C)(C(c3ccccc3)=C1c1ccccc1)C1(Br)C(=O)N(Cc3cn(CCOC4OC(CO)C(O)C(O)C4O)nn3)C(=O)C21 (centres unmarked) [oCOm-49] . > 200 µM

If you can, please state the reported EC50 value of CCOC(=O)[C@@H](N)CCCCN1C(=O)C2C3(C)C(=O)C(C)(C(c4ccccc4)=C3c3ccccc3)C2(Br)C1=O (some centres unmarked) [oCOm-32, Trifluoroacetic Acid Salt] . > 100 µM

If you can, please state the reported EC50 value of COC(=O)[C@H](CCCCN1C(=O)C2C3(C)C(=O)C(C)(C(c4ccccc4)=C3c3ccccc3)C2(Br)C1=O)NC(C)=O (some centres unmarked) [oCOM-41] . > 100 µM

If you can, please state the reported EC50 value of CC12C(=O)C(C)(C(c3ccccc3)=C1c1ccccc1)C1(Br)C(=O)N(CCCC[C@H](N)C(=O)O)C(=O)C21 (some centres unmarked) [oCOm-28, Trifluoroacetic Acid Salt] . > 100 µM

If you can, please state the reported EC50 value of CC12C(=O)C(C)(C(c3ccccc3)=C1c1ccccc1)C1(Br)C(=O)N(CCC(=O)NC(CO)(CO)CO)C(=O)C21 (centres unmarked) [oCOm-24] . > 100 µM
